Can you tell me IC50 for the items I'm about to list?
# experimental.system: human α1G T-type channels (Homo sapiens)
# Sequence (O43497 whole entry): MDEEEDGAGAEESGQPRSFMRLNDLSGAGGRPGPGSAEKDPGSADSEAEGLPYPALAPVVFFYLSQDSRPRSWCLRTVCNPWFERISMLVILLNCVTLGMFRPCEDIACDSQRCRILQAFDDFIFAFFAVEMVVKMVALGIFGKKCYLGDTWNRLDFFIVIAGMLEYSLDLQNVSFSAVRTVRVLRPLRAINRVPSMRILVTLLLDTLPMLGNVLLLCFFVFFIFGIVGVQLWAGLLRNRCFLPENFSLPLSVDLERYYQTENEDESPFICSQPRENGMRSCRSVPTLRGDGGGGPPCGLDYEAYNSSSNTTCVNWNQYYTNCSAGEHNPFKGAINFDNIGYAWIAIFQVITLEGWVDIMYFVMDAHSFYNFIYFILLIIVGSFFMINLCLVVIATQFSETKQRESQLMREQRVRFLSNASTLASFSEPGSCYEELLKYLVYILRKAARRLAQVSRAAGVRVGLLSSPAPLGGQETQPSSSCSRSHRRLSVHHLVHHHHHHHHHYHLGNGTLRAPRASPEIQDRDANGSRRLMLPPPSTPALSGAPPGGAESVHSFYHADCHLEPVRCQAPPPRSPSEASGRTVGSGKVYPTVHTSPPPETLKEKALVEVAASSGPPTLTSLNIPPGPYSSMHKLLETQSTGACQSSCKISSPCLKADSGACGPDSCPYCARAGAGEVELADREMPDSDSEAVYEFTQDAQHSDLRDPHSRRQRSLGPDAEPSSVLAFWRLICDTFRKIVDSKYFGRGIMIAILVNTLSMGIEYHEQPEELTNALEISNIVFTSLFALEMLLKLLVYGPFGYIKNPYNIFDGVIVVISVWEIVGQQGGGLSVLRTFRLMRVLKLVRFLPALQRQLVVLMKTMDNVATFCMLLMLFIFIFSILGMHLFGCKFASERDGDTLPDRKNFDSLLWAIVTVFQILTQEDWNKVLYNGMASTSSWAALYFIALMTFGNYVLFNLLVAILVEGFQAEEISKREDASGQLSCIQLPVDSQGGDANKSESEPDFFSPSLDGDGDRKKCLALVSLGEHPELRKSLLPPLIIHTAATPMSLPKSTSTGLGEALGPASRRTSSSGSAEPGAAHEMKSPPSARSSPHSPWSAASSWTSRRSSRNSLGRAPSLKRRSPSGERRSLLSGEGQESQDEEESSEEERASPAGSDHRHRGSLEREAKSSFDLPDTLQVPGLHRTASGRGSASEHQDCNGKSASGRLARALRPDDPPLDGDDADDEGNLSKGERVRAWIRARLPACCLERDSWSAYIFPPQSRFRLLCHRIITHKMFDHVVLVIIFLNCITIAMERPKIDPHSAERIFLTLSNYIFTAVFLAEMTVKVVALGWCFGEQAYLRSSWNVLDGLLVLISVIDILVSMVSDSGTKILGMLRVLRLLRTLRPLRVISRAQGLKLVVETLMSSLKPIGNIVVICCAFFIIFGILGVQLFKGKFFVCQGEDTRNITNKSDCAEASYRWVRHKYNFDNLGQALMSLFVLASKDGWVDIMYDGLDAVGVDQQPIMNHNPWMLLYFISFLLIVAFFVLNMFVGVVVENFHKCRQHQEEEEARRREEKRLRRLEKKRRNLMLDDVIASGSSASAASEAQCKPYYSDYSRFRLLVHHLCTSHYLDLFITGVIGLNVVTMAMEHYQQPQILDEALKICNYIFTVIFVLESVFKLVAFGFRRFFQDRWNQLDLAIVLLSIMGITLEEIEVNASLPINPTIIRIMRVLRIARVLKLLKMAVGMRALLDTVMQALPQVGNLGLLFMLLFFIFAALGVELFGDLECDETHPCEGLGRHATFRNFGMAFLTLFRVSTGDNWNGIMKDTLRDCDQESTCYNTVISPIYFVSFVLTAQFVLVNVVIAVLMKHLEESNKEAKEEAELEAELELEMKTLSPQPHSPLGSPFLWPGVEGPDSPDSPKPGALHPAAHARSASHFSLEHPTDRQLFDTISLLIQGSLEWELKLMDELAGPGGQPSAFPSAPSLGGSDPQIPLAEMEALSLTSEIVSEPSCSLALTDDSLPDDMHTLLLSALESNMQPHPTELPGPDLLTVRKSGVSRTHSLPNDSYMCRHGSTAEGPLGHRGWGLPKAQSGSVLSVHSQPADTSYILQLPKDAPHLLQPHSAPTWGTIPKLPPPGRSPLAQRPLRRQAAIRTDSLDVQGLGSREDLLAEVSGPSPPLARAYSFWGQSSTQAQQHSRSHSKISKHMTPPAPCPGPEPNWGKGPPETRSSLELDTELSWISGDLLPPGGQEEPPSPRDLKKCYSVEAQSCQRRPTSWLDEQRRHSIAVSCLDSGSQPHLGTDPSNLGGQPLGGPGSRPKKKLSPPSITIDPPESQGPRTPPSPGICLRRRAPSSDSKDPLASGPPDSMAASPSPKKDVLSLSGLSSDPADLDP
# assay.summary: T-type calcium channel block, whole cell patch clamp, α1G
# settings: HEK cells stably expressing human α1G; mainly non-inactivated protocol; values above 10,000 nM represented as 10000

sample.smiles	IC50
Cc1cc(C(=O)N[C@H]2CC[C@H](CS(=O)(=O)c3cccc(C(F)(F)F)c3)CC2)c(C(F)(F)F)o1	> 10 µM

Quick one: give me IC50 for each item below, same order please.
1. COc1cc(F)cc(C(=O)N[C@H]2C[C@H](CS(=O)(=O)c3cccc(C(F)(F)F)c3)C2)c1
2. O=C(N[C@H]1CC[C@H](CS(=O)(=O)c2cccc(C(F)(F)F)c2)CC1)C1CCOCC1

a:
["> 10 µM", "> 10 µM"]

---

# experimental.system: Human Cav 2.2 channels (Homo sapiens, UniProt Q00975)
# assay.summary: Fluorescent assay for CaV2.2 channels using potassium depolarization (VIPR/FLIPR)
# Type: cell-based
# settings: FLIPR data; inactivated state; read-out: CAv2.2 IC50 Inact.
recorded.endpoint: pIC50
Give bare numbers, as −log10 of the molar value.

compound	obs.value
CC(C)([C@H]1C[C@H](NS(=O)(=O)c2ccc(Cl)c(F)c2)C1)S(=O)(=O)c1cc(F)cc(C(F)(F)F)c1	5.94
O=C(NC[C@H]1C[C@H](S(=O)(=O)c2cccc(OC(F)(F)F)c2)C1)c1ccnc(C(F)(F)F)n1	6.15
CC(C)([C@H]1C[C@@H](CNC(=O)c2ncc(C(F)(F)F)cn2)C1)S(=O)(=O)c1cccc(C(F)(F)F)c1	6.19
NC1(CC(=O)NC[C@H]2C[C@H](S(=O)(=O)c3cc(F)cc(C(F)(F)F)c3)C2)CCCCC1	5.52
CC(C)([C@H]1C[C@H](CNc2cc(C(F)(F)F)n[nH]2)C1)S(=O)(=O)c1cccc(C(F)(F)F)c1	6.55
O=C(NC[C@H]1C[C@H](S(=O)(=O)c2cccc(OC(F)(F)F)c2)C1)c1ccc(Cl)cn1	6.47
CC(C)(C[C@H]1C[C@H](NC(=O)c2ccc(Cl)cc2S(C)(=O)=O)C1)S(=O)(=O)c1cccc(C(F)(F)F)c1	6.82
CC(C)(C1CC(CNC(=O)c2ccc(Cl)c(OC(F)(F)F)c2)C1)S(=O)(=O)c1cccc(C(F)(F)F)c1 (stereo not drawn)	6.82
CC(C)(C[C@H]1C[C@@H](NC(=O)c2ccc(Cl)cc2S(C)(=O)=O)C1)S(=O)(=O)c1cccc(C(F)(F)F)c1	6.64
CC(C)([C@H]1C[C@@H](NS(=O)(=O)c2ccc(C(F)(F)F)cc2Cl)C1)S(=O)(=O)c1cccc(C(F)(F)F)c1	6.06

Can you give me pIC50 for all of these, one by one?
1. CC(C)([C@H]1C[C@@H](NS(=O)(=O)c2ccc(C(F)(F)F)cc2)C1)S(=O)(=O)c1cccc(C(F)(F)F)c1
2. CC(C)([C@H]1C[C@H](NC(=O)c2ccc(Cl)cc2S(C)(=O)=O)C1)S(=O)(=O)c1cccc(C(F)(F)F)c1
3. CC(C)([C@H]1C[C@@H](CNC(=O)c2ccc(OCC(F)(F)F)nc2)C1)S(=O)(=O)c1cccc(C(F)(F)F)c1
4. CC(C)([C@H]1C[C@H](NC(=O)c2ccc(Cl)c(F)c2)C1)S(=O)(=O)c1cc(F)cc(C(F)(F)F)c1
5. CC(C)([C@H]1C[C@@H](NC(=O)c2ccnc(C(F)(F)F)n2)C1)S(=O)(=O)c1cc(F)cc(C(F)(F)F)c1

a:
[6.10, 6.32, 6.59, 6.59, 6.02]

Parameter requested: pIC50. Apply to each item below.
1. CC(C)(C1CC(CNC(=O)c2ccc(OCC(F)(F)F)nc2)C1)S(=O)(=O)c1cccc(C(F)(F)F)c1 (stereo not drawn)
2. O=C(NC[C@H]1C[C@H](S(=O)(=O)c2cc(F)cc(C(F)(F)F)c2)C1)c1ccc(C(F)(F)F)cc1
3. CC(C)([C@H]1C[C@H](C(=O)Nc2cc(C(F)(F)F)n[nH]2)C1)S(=O)(=O)c1cccc(C(F)(F)F)c1

a:
6.59
6.08
6.41
